- assay target: chimeric BTLA of humanised-BTLA mice (human extracellular region, murine transmembrane and signaling … (human; mouse, UniProt Q7TSA3 184-306, limits assumed)
- Sequence (Q7TSA3 other isoform, or with tags, fused parts or gaps mutant limits assumed): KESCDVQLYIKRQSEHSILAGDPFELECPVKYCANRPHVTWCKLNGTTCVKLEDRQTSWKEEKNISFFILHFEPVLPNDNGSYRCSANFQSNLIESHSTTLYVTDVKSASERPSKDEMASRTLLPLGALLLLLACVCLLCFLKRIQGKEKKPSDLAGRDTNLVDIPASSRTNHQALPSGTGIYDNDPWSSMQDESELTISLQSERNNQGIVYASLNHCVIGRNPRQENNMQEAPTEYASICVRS
- test protocol: cell-based or functional assay
Recorded AntiCD3/CD28 (CD69+ CD4 T cells) repeat 2, % inhibition values for a group of binders are listed next.
Provide only the numeric value, understood in %.

>>> value_measured("12F11 (antibody, IgG1, V domains shown) VH: EVQLQQSGPELVKPGASVKISCKASGYTFTDYYMNWVKQSHGKSLEWIGDINPNNGGTSYNQKFKGKATLTVDKSSSTAYMELRSLTSEDSAVYYCARWRQLRSDYWGQGTTLTVSS VL: DIQMTQSPASQSASLGESVTITCLASQTIGTWLAWYQQKPGKSPQLLIYAATSLADGVPSRFSGSGSGTKFSFKISSLQAEDFVSYYCQQLYSTPLTFGAGTKLELK")
40

Q: Let me know recorded AntiCD3/CD28 (CD69+ CD4 T cells) repeat 2, % inhibition for 8C4 (antibody, IgG1, V domains shown) VH: DVQLQESGPGMVKPSQSLSLTCTVTGYSITSGYDWHWIRHFPGNKLEWMGYISYSGSTNYNPSLKSRISITHDTSKNHFFLKLNSVTTEDTATYYCARGTPVVAEDYFDYWGQGTTLTVSS VL: QAVVTQESALSTSPGETVTLTCRSSTGAVTTSNYANWVQEKPDHLFTGLIGATNNRAPGVPARFSGSLIGDKAALTITGAQTEDEAIYFCALWYSNHLVFGGGTKLTVLG , thanks.
Ans: 29
